Tested on: THP-1 cells
Assay: TNFα generation assay
Type: cell-based, human
Details: Homo sapiens, THP-1, THP-1 cells; Table 22; read-out: IC50 in TNFα generation assay
assay_metric: IC50

C[C@H](N)CNc1nc(Nc2cccc(-n3nccn3)c2)c(C(N)=O)cc1F
< 65 nM

Q: IC50 lookup needed for `CC[C@@H](Nc1nc(Nc2cnc(C)c(C3CC3)c2)c(C(N)=O)cc1F)[C@H](C)N` , thanks.
A: 65 to 130 nM

Q: Also `NC(=O)c1cc(F)c(N[C@@H](C(N)=O)c2ccccc2)nc1Nc1ccc2ncccc2c1` ?
A: 65 to 130 nM

Q: Also COCc1cncc(Nc2nc(N[C@@H]3CCCC[C@@H]3N)c(F)cc2C(N)=O)c1 (relative stereo) ?
A: 65 to 130 nM
